assayed.target: Mu-type opioid receptor (Cavia porcellus)
Sequence (P97266 whole entry): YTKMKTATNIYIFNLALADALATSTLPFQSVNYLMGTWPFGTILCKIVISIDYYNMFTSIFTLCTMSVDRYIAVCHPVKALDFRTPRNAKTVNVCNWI

| structure.notation | Ki [nM] |
| --- | --- |
| Oc1ccc2c3c1O[C@H]1C(c4c[nH]c5ccccc45)=CC[C@@]4(O)[C@@H](C2)N(CC2CC2)CC[C@]314 | 0.63 |

* * *

assayed.target: Kappa-type opioid receptor (Cavia porcellus, UniProt P41144)
Sequence (P41144 whole entry): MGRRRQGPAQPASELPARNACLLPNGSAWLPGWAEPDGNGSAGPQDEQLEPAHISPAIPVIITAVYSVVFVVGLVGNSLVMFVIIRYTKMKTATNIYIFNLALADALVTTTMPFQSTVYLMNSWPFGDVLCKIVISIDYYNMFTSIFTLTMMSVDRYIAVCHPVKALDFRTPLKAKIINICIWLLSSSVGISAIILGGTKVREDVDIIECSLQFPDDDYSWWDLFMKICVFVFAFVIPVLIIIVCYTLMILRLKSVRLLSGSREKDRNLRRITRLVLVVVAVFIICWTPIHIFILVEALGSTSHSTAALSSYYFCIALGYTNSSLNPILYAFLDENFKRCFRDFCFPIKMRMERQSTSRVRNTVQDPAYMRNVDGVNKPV
pKi: −log10 of the molar value.
observed.property: pKi

| structure.notation | observed.property | reported |
| --- | --- | --- |
| Oc1ccc2c3c1O[C@H]1C(c4c[nH]c5ccccc45)=CC[C@@]4(O)[C@@H](C2)N(CC2CC2)CC[C@]314 | pKi | 8.21 |
